# System: MDA-MB-231 multicell spheroids, viability
# Method Description: Anticancer human tumor MDA-MB-231 cell line growth inhibition [PI3K];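 note: spheroids exposed to agents for seven days before reading; percent of vehicle control luminescence with DMSO treated spheroids as 100%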
# Stated Conditions: second compound 1 µM; first compound 10 µM; stronger effect = lower value
Attribute Measured: viability, T/C (%)
Please state the figure in %; there is no need to write the unit.

Could you share which viability, T/C value was measured for C#Cc1c(F)ccc2cc(O)cc(-c3ncc4c(N5CC6CCC(C5)N6)nc(OCC56CCCN5CC(F)C6)nc4c3F)c12 (stereo not given) + CC(Nc1ncnc2nc[nH]c12)c1cc2cccc(Cl)c2c(=O)n1-c1ccccc1 ?
43.5

State the recorded viability, T/C for this entry: CNC(=O)c1ccc(N2C(=S)N(c3ccc(C#N)c(C(F)(F)F)c3)C(=O)C2(C)C)cc1F + CC(Nc1ncnc2nc[nH]c12)c1cc2cccc(Cl)c2c(=O)n1-c1ccccc1
64.1

Given the entry C#Cc1c(F)ccc2cc(O)cc(-c3ncc4c(N5CC6CCC(C5)N6)nc(OCC56CCCN5CC(F)C6)nc4c3F)c12 (stereo not given) + Cc1nc(NC(=O)N2CCCC2C(N)=O)sc1-c1ccnc(C(C)(C)C(F)(F)F)c1 , report its measured viability, T/C.
33.3

Give the measured viability, T/C of C=CC(=O)N1CCN(c2nc(=O)n(-c3c(C)ccnc3C(C)C)c3nc(-c4c(O)cccc4F)c(F)cc23)C(C)C1 (stereo not given) + Cc1nc(NC(=O)N2CCCC2C(N)=O)sc1-c1ccnc(C(C)(C)C(F)(F)F)c1 .
48.5

Look up viability, T/C: Cn1ncc(Cl)c1-c1cc(C(=O)NC(CN)Cc2cccc(F)c2)sc1Cl (stereo not given) + CC(Nc1ncnc2nc[nH]c12)c1cc2cccc(Cl)c2c(=O)n1-c1ccccc1
23.4
